- Tested on: HCT-15
- protocol_text: Growth inhibition of human HCT15 cells incubated for 48 hrs by sulforhodamine B assay
- Type: functional
- recorded_conditions: HCT-15, 48 h
This listing pairs compounds with measured log10 of GI50.
Values are log10 of GI50 in nM.

// below: answered compounds
• COc1ccccc1CNCCCN1C(=O)c2ccc3c4c(ccc(c24)C1=O)C(=O)N(CCCOCCCCOCCCN)C3=O = 2.74
• COc1ccccc1CNCCCN1C(=O)c2ccc3c4c(ccc(c24)C1=O)C(=O)N(CCCNCCCCN)C3=O = 2.22
• COc1ccccc1CNCCCN1C(=O)c2ccc3c4c(ccc(c24)C1=O)C(=O)N(CCCCNCCCN)C3=O = 3.65
• COc1ccccc1CNCCCN1C(=O)c2ccc3c4c(ccc(c24)C1=O)C(=O)N(CCCN)C3=O = 3.15
• CNCCCNCCCCNCCCN1C(=O)c2ccc3c4c(ccc(c24)C1=O)C(=O)N(CCCNCc1ccccc1OC)C3=O = 3.63

Task item: # lookup: log10 of GI50 of CNCCCNCCCN1C(=O)c2ccc3c4c(ccc(c24)C1=O)C(=O)N(CCCNCc1ccccc1OC)C3=O
Reply: 3.37

Task item: # lookup: log10 of GI50 of COc1ccccc1CNCCCN1C(=O)c2ccc3c4c(ccc(c24)C1=O)C(=O)N(CCCNCCCCNCCCN)C3=O
Reply: 3.24

Task item: # lookup: log10 of GI50 of COc1ccccc1CNCCCN1C(=O)c2ccc3c4c(ccc(c24)C1=O)C(=O)N(CCCNCCCN)C3=O
Reply: 2.95

Task item: # lookup: log10 of GI50 of COc1ccccc1CNCCCN1C(=O)c2ccc3c4c(ccc(c24)C1=O)C(=O)N(CCCNCCNCCCN)C3=O
Reply: 4.09

###

- protocol_text: Stabilization of 5'Dabcyl/3'FAM labeled duplex DNA (unknown origin) assessed as increase in melting temperature at 2.5 uM pretreated for 5 mins at 30 degreeC followed by 5 mins incubation at 95 degreeC by fluorescence assay
endpoint_name: ΔTm (°C)
Just the number in °C, nothing appended.

// below: answered compounds
- COc1ccccc1CNCCCN1C(=O)c2ccc3c4c(ccc(c24)C1=O)C(=O)N(CCCNCCCCN)C3=O: 12.2
- COc1ccc(CNCCCN2C(=O)c3ccc4c5c(ccc(c35)C2=O)C(=O)N(CCCNCCCCNCCCN)C4=O)c(OC)c1OC: 12.6
- COc1ccccc1CNCCCN1C(=O)c2ccc3c4c(ccc(c24)C1=O)C(=O)N(CCCNCCNCCCN)C3=O: 10.4
- CNCCCNCCCCNCCCN1C(=O)c2ccc3c4c(ccc(c24)C1=O)C(=O)N(CCCNCc1ccccc1OC)C3=O: 17.1
- COc1ccccc1CNCCCN1C(=O)c2ccc3c4c(ccc(c24)C1=O)C(=O)N(CCCN)C3=O: 6.7

Task item: # lookup: ΔTm of COc1ccccc1CNCCCN1C(=O)c2ccc3c4c(ccc(c24)C1=O)C(=O)N(CCCNCc1ccccc1OC)C3=O
Reply: 8.4

Task item: # lookup: ΔTm of COc1ccccc1CNCCCN1C(=O)c2ccc3c4c(ccc(c24)C1=O)C(=O)N(CCCCNCCCN)C3=O
Reply: 9.1

Task item: # lookup: ΔTm of COc1ccccc1CNCCCN1C(=O)c2ccc3c4c(ccc(c24)C1=O)C(=O)N(CCCNCCCCNCCCN)C3=O
Reply: 6.7

Task item: # lookup: ΔTm of COc1ccccc1CNCCCN1C(=O)c2ccc3c4c(ccc(c24)C1=O)C(=O)N(CCCNCCCNCCCN)C3=O
Reply: 12.2

Task item: # lookup: ΔTm of CNCCCNCCCN1C(=O)c2ccc3c4c(ccc(c24)C1=O)C(=O)N(CCCNCc1ccccc1OC)C3=O
Reply: 9.5

Task item: # lookup: ΔTm of COc1ccccc1CNCCCN1C(=O)c2ccc3c4c(ccc(c24)C1=O)C(=O)N(CCCNCCCN)C3=O
Reply: 7

Task item: # lookup: ΔTm of COc1ccccc1CNCCCN1C(=O)c2ccc3c4c(ccc(c24)C1=O)C(=O)N(CCCOCCCCOCCCN)C3=O
Reply: 1.5

###

- tested_on: DNA topoisomerase 2-alpha (Homo sapiens, UniProt P11388)
- Sequence (P11388 whole entry): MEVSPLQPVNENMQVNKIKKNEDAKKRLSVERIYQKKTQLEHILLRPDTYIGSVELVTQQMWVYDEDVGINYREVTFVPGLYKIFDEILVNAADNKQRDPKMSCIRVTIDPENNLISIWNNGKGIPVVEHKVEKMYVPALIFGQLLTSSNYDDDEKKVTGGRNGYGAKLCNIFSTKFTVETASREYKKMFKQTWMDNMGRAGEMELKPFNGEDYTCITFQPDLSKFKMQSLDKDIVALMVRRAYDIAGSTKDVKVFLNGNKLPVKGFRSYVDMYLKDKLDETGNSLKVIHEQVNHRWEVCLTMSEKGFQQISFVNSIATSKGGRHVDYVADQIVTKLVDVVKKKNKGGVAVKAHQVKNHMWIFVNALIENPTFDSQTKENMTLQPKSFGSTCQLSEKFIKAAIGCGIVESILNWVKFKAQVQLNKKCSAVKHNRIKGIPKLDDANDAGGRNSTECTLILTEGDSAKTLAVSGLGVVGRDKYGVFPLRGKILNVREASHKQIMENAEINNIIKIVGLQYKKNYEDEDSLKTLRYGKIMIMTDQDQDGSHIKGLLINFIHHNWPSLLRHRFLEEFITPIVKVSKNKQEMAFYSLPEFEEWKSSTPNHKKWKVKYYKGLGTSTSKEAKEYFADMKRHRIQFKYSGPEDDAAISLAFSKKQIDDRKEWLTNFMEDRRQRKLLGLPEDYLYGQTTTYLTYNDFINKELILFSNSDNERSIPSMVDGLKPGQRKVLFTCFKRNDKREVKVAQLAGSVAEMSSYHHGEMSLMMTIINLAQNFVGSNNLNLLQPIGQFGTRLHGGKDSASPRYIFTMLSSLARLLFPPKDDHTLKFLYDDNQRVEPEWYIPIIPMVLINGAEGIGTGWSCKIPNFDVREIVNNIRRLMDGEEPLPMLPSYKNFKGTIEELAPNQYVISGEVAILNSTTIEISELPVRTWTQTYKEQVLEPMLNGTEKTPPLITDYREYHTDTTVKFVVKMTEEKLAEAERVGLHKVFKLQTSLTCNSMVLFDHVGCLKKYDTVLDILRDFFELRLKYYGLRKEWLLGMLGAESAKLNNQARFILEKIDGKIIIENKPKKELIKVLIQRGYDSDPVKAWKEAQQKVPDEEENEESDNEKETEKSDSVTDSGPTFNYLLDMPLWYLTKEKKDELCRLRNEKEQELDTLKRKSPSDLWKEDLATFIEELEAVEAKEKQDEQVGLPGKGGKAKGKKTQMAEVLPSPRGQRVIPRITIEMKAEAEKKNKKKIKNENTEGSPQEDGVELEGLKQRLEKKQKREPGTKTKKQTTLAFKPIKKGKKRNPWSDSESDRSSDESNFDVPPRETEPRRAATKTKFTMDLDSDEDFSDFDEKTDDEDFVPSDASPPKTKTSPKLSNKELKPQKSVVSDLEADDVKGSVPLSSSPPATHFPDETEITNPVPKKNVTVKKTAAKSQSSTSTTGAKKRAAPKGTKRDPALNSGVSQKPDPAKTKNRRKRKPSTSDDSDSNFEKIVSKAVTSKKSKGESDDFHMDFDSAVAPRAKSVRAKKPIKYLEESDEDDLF
- protocol_text: Inhibition of human topoisomerase-2alpha-mediated relaxation of supercoiled pBR322 DNA after 1 hr by ethidium bromide staining based agarose gel electrophoresis
endpoint_name: pIC50
Conceptually, pIC50 converts a concentration in mol/L into minus its log10.

// below: answered compounds
- COc1ccccc1CNCCCN1C(=O)c2ccc3c4c(ccc(c24)C1=O)C(=O)N(CCCNCCCN)C3=O: 5.82
- COc1ccccc1CNCCCN1C(=O)c2ccc3c4c(ccc(c24)C1=O)C(=O)N(CCCNCc1ccccc1OC)C3=O: 5.22

Task item: # lookup: pIC50 of COc1ccccc1CNCCCN1C(=O)c2ccc3c4c(ccc(c24)C1=O)C(=O)N(CCCNCCCCNCCCN)C3=O
Reply: 5.66

###

This listing pairs molecules with measured GI50.
- Tested on: NCI/ADR-RES
- protocol_text: Growth inhibition of human NCI-ADR-RES cells incubated for 48 hrs by sulforhodamine B assay
- Format: functional
Just the number in nM, nothing appended.

// below: answered molecules
• COc1ccccc1CNCCCN1C(=O)c2ccc3c4c(ccc(c24)C1=O)C(=O)N(CCCNCCCCN)C3=O = 366
• CNCCCNCCCCNCCCN1C(=O)c2ccc3c4c(ccc(c24)C1=O)C(=O)N(CCCNCc1ccccc1OC)C3=O = 7090
• COc1ccccc1CNCCCN1C(=O)c2ccc3c4c(ccc(c24)C1=O)C(=O)N(CCCCNCCCN)C3=O = 5990
• CNCCCNCCCN1C(=O)c2ccc3c4c(ccc(c24)C1=O)C(=O)N(CCCNCc1ccccc1OC)C3=O = 12100

Task item: # lookup: GI50 of COc1ccccc1CNCCCN1C(=O)c2ccc3c4c(ccc(c24)C1=O)C(=O)N(CCCOCCCCOCCCN)C3=O
Reply: 1470

Task item: # lookup: GI50 of COc1ccccc1CNCCCN1C(=O)c2ccc3c4c(ccc(c24)C1=O)C(=O)N(CCCN)C3=O
Reply: 2900

Task item: # lookup: GI50 of COc1ccccc1CNCCCN1C(=O)c2ccc3c4c(ccc(c24)C1=O)C(=O)N(CCCNCCCN)C3=O
Reply: 1160

Task item: # lookup: GI50 of COc1ccccc1CNCCCN1C(=O)c2ccc3c4c(ccc(c24)C1=O)C(=O)N(CCCNCCCCNCCCN)C3=O
Reply: 2040

Task item: # lookup: GI50 of COc1ccccc1CNCCCN1C(=O)c2ccc3c4c(ccc(c24)C1=O)C(=O)N(CCCNCCNCCCN)C3=O
Reply: 23100

###

This listing pairs molecules with measured MIC.
- System: Thermus aquaticus
- protocol_text: Inhibition of Thermus aquaticus DNA polymerase-mediated amplification of fragment of pBR322 by PCR
Just the number in µM, nothing appended.

Task item: # lookup: MIC of COc1ccccc1CNCCCN1C(=O)c2ccc3c4c(ccc(c24)C1=O)C(=O)N(CCCCNCCCN)C3=O
Reply: 0.5

Task item: # lookup: MIC of COc1ccccc1CNCCCN1C(=O)c2ccc3c4c(ccc(c24)C1=O)C(=O)N(CCCNCc1ccccc1OC)C3=O
Reply: 10

###

- Tested on: SK-OV-3
- protocol_text: Growth inhibition of human SKOV3 cells incubated for 48 hrs by sulforhodamine B assay
- Type: functional
- recorded_conditions: SK-OV-3, 48 h
This listing pairs molecules with measured GI50.
Numeric answer plus unit only.

- COc1ccccc1CNCCCN1C(=O)c2ccc3c4c(ccc(c24)C1=O)C(=O)N(CCCNCCCCNCCCN)C3=O: 2110 nM
- COc1ccccc1CNCCCN1C(=O)c2ccc3c4c(ccc(c24)C1=O)C(=O)N(CCCNCCCCN)C3=O: 290 nM
- CNCCCNCCCN1C(=O)c2ccc3c4c(ccc(c24)C1=O)C(=O)N(CCCNCc1ccccc1OC)C3=O: 2950 nM
- COc1ccccc1CNCCCN1C(=O)c2ccc3c4c(ccc(c24)C1=O)C(=O)N(CCCNCCNCCCN)C3=O: 4040 nM
- CNCCCNCCCCNCCCN1C(=O)c2ccc3c4c(ccc(c24)C1=O)C(=O)N(CCCNCc1ccccc1OC)C3=O: 6190 nM
- COc1ccccc1CNCCCN1C(=O)c2ccc3c4c(ccc(c24)C1=O)C(=O)N(CCCOCCCCOCCCN)C3=O: 2360 nM
- COc1ccccc1CNCCCN1C(=O)c2ccc3c4c(ccc(c24)C1=O)C(=O)N(CCCNCCCN)C3=O: 1040 nM
- COc1ccccc1CNCCCN1C(=O)c2ccc3c4c(ccc(c24)C1=O)C(=O)N(CCCCNCCCN)C3=O: 4030 nM

Now for the molecule whose GI50 we want.
Task item: # lookup: GI50 of COc1ccccc1CNCCCN1C(=O)c2ccc3c4c(ccc(c24)C1=O)C(=O)N(CCCN)C3=O
Reply: 2670 nM

###

- Tested on: T47D
- protocol_text: Growth inhibition of human T47D cells incubated for 48 hrs by sulforhodamine B assay
- Type: functional
endpoint_name: GI50
Numeric answer plus unit only.

// below: answered compounds
• COc1ccccc1CNCCCN1C(=O)c2ccc3c4c(ccc(c24)C1=O)C(=O)N(CCCNCCNCCCN)C3=O = 1510 nM
• COc1ccccc1CNCCCN1C(=O)c2ccc3c4c(ccc(c24)C1=O)C(=O)N(CCCNCCCCN)C3=O = 215 nM
• COc1ccccc1CNCCCN1C(=O)c2ccc3c4c(ccc(c24)C1=O)C(=O)N(CCCNCCCN)C3=O = 793 nM

Task item: # lookup: GI50 of CNCCCNCCCN1C(=O)c2ccc3c4c(ccc(c24)C1=O)C(=O)N(CCCNCc1ccccc1OC)C3=O
Reply: 1250 nM

Task item: # lookup: GI50 of COc1ccccc1CNCCCN1C(=O)c2ccc3c4c(ccc(c24)C1=O)C(=O)N(CCCN)C3=O
Reply: 1170 nM

Task item: # lookup: GI50 of CNCCCNCCCCNCCCN1C(=O)c2ccc3c4c(ccc(c24)C1=O)C(=O)N(CCCNCc1ccccc1OC)C3=O
Reply: 342 nM
